Tested on: BXPC-3
Test: Antiproliferative activity against human BXPC-3 cells expressing wild-type BRCA assessed as inhibition of cell survival incubated for 5 days by CCK8 assay
Format: functional, cell-based
Conditions: BXPC-3, 120 h
pIC50: −log10 of the molar value.
quantity name: pIC50

Solved cases below.
Cc1sc2c(c1C)C(c1ccc(Cl)cc1)=N[C@@H](CC(=O)OC(C)(C)C)c1nnc(C)n1-2 ... > 5.00
O=C1CCC(N2C(=O)c3cccc(NC(=O)CNCCCCCCCCCCC(=O)N4CCN(C(=O)c5cc(Cc6n[nH]c(=O)c7ccccc67)ccc5F)CC4)c3C2=O)C(=O)N1 (stereo not drawn) ... > 5.00

Here's the next entry for you.
Recorded pIC50 of O=C(c1cc(Cc2n[nH]c(=O)c3ccccc23)ccc1F)N1CCN(C(=O)C2CC2)CC1 , please.
> 5.00
